FYI, the data here is from patent US20240343803A1.

assayed.target: T1, Fusion protein of extracellular domain of human TIGIT and His-tag (human TIGIT ECD-his) (human)
T1 chain: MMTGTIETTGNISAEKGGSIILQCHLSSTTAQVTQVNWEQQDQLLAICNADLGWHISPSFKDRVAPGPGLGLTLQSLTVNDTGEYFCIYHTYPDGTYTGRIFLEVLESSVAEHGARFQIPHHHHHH
assay.text: BIAcore
measured.metric: Kd (pM)
Write it as a number; the unit pM goes unstated.

Take a look at these entries with their results.
binder: TIGIT-070-H1L1 (antibody, V domains shown, Humanized anti-TIGIT antibody) VH: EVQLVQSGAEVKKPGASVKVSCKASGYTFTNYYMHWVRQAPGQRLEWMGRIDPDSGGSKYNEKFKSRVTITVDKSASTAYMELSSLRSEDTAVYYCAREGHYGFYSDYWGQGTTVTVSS VL: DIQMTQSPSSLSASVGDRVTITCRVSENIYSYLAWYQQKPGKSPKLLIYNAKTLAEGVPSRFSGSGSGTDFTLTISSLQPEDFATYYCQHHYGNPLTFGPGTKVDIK
measured.metric: Kd
result: 251
--
binder: TIGIT-006-H5L3 (antibody, V domains shown, Humanized anti-TIGIT antibody) VH: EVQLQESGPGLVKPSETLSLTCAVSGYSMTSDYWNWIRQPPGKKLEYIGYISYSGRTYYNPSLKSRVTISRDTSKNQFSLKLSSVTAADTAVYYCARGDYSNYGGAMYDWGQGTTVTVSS VL: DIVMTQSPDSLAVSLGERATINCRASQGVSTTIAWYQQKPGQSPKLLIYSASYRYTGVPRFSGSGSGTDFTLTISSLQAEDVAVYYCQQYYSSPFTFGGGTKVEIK
measured.metric: Kd
result: 115
--
binder: TIGIT-005-H2L1d (antibody, V domains shown, Humanized anti-TIGIT antibody with NG-site mutation in VL) VH: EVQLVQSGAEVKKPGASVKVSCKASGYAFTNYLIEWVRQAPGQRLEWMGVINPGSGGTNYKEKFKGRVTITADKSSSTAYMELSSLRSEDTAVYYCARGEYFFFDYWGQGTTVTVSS VL: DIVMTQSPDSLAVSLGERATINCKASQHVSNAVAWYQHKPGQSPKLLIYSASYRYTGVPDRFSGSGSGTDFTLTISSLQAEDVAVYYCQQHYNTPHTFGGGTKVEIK
measured.metric: Kd
result: 85.2

Proceed to the following item.
Kd lookup needed for TIGIT-002-H4L3 (antibody, V domains shown, Humanized anti-TIGIT antibody) VH: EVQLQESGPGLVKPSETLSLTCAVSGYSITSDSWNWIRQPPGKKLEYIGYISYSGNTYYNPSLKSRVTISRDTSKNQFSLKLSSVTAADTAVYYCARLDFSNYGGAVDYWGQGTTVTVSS VL: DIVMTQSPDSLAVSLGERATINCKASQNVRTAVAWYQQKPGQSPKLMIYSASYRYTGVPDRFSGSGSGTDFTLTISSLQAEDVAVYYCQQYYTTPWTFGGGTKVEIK , thanks. 99.4
